test: Hemolytic activity in human RBC assessed as hemolysis incubated for 1 hr by absorbance based microplate reader analysis; type: toxicity, cell-based, Erythrocyte; settings: human red blood cells (erythrocytes)
# EC50 at 1 h per entry

Worked set:
structure=N=C(N)NCCCN1C(=O)N(CCCNC(=N)N)C(Cc2ccc(Br)c(Cl)c2)(Cc2ccc(Br)c(Cl)c2)C1=O recorded_value="> 467 µg/mL"
structure=N=C(N)NCCCCN1C(=O)N(CCCCNC(=N)N)C(Cc2ccc(C(F)(F)F)cc2)(Cc2ccc(C(F)(F)F)cc2)C1=O.O=C(O)C(F)(F)F.O=C(O)C(F)(F)F recorded_value="> 503 µg/mL"

API: the following record is the query input.
Which measured EC50 at 1 h value corresponds to NCCCCN1C(=O)N(CCCCN)C(Cc2ccc(Br)c(Cl)c2)(Cc2ccc(Br)c(Cl)c2)C1=O.O=C(O)C(F)(F)F.O=C(O)C(F)(F)F ?
> 439 µg/mL
